Data credit: PubChem BioAssay (NCI)

- System: HS 578T breast
- ASSAY PROTOCOL: NCI tumour cell line growth inhibition, 48 h
Exercise: state measured GI50 for each of the compounds provided.

Check out these entries, answers already filled in.
[[record]]
compound = "COc1ccc2c(c1)C(=O)c1c-2c(Nc2ccc(C(C)=O)cc2)nc2ccccc12"
val = "8.39 µM"

[[record]]
compound = "COc1cnc2c(c1)C(=O)c1c-2n(CCCN2CCC(O)CC2)c(=O)c2cc(F)ccc12"
val = "1.67 µM"

[[record]]
compound = "CN(C)c1ccc(/C=C(\\C#N)c2nc3ccccc3n2C)cc1"
val = "2.84 µM"

[[record]]
compound = "C/C(=C\\C1=C(Cl)C(=O)c2ccccc2C1=O)C(=O)O"
val = "30.3 µM"

[[record]]
compound = "C=CC[P+](c1ccccc1)(c1ccccc1)c1ccccc1"
val = "10.1 µM"


Please give GI50 for each item listed below.
1. COC(=O)[C@]12CC[C@@H](C)[C@H](C)[C@@H]1C1=CC[C@@H]3[C@@]4(C)C(C=O)=C[C@@](C)(COC(=O)c5ccco5)[C@@H]4C(=O)C[C@@]3(C)[C@]1(C)CC2
2. CC(=O)c1cc2c(cc1Nc1c3ccccc3nc3occ(Cl)c13)OCO2
3. O=C1c2ccccc2C(=Cc2ccccc2)c2ccccc21
4. CCOC(=O)C1=C(C)NC2SC(=O)/C(=C\c3ccccc3O)N2C1c1ccccc1 (centres undefined)

Reply |
1. 9.68 µM
2. 0.109 µM
3. 3.9 µM
4. 17.4 µM
